Every entry's value here was drawn from the kinase profiling compilation of Christmann-Franck et al. (2016).

- target.under.test: UniProt Q9NZJ5
- Sequence (Q9NZJ5 whole entry, looked up): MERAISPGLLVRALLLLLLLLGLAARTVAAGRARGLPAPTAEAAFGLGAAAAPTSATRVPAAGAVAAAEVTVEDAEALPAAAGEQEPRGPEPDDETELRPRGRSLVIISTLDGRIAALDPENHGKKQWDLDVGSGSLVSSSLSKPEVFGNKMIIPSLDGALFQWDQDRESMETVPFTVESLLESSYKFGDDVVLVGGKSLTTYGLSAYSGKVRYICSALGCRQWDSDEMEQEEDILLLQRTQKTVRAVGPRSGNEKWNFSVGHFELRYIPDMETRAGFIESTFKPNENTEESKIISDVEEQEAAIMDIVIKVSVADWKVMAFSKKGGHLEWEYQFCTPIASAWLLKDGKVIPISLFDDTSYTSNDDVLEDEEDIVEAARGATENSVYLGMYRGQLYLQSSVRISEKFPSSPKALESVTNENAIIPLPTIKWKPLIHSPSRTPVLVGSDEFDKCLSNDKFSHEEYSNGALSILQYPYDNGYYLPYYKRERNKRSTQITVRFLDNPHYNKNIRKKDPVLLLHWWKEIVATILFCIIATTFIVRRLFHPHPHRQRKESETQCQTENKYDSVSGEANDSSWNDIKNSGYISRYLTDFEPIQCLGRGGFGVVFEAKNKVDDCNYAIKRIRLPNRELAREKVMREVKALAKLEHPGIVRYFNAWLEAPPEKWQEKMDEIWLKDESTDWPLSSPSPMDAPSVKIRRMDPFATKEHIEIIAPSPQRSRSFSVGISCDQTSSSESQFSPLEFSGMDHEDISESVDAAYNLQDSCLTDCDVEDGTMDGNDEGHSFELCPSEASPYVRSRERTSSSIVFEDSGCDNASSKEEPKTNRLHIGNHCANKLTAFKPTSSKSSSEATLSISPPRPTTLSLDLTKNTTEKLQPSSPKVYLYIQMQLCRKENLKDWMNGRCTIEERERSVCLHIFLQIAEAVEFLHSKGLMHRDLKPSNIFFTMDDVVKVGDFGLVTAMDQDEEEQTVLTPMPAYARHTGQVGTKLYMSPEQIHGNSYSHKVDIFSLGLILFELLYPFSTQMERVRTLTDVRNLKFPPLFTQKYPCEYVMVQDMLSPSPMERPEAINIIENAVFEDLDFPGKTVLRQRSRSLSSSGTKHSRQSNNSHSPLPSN
- assay.text: radiometric filter-binding kinase assay
- measurement.parameters: compound 1.0 µM
readout: residual activity (%)
Give bare numbers, in %.

Recorded results for 3 compounds are shown here.
Task: Request the reported residual activity associated with COc1ccc(-n2ncc3cnc(Nc4cc(OC)c(OC)c(OCCCN5CCN(C)CC5)c4)nc32)cc1
Output: 31

Task: Try COc1cc(C(=O)N2CCOCC2)c(F)cc1Nc1ncc(C(F)(F)F)c(NC2CC2)n1 next.
Output: 87

Task: Try NCC(=O)Nc1ccc(-n2nc(C(F)(F)F)cc2-c2ccc3c(ccc4ccccc43)c2)cc1 next.
Output: 102

Report residual activity for every entry below.
1. Cc1ccc(-c2ccc3c(ccc4sc5c(c43)NC[C@@H](C)NC5=O)n2)cn1
2. O=C(Nc1nc2cc(C(F)(F)F)cc(NC3CC3)n2n1)c1cccnc1
3. COc1ccc(N(C(=O)Nc2c(C)cccc2C)c2cc(Nc3ccc(N4CCN(C)CC4)cc3)ncn2)c(OC)c1
4. Cc1cc(NC(=O)c2cccc(NC(=O)/C=C/CN(C)C)c2)ccc1Nc1nccc(-c2cccnc2)n1
5. Nc1cccc2c1CN(C1CCC(=O)NC1=O)C2=O (centres undefined)

Output:
[101, 104, 95, 93, 86]

Task: Request the reported residual activity associated with CC(C)(C#N)c1ccc(N2C(=O)OCc3cnc4ccc(-c5cnc6ccccc6c5)cc4c32)cc1
Output: 101
